# target-entity: T1, His-tagged β-cat (ARM domain, aa 134-668) (UniProt P35222 134-668)
# T1 sequence (looked up): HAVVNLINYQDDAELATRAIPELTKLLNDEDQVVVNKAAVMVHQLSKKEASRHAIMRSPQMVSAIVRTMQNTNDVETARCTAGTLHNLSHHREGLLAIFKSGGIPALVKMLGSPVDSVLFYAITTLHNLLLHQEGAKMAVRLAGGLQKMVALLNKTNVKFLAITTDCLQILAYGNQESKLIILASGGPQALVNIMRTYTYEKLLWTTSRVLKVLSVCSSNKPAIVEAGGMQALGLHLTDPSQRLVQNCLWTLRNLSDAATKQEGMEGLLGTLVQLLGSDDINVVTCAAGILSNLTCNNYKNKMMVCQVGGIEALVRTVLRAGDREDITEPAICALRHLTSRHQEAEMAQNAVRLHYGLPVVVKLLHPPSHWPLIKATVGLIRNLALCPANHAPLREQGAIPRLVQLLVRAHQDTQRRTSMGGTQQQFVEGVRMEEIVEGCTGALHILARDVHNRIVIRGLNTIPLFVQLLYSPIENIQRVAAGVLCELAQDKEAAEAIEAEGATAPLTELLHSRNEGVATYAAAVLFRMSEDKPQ
# method-notes: SPR
Primed or numbered codes have the meaning given here. Where no end group is shown, it is not given here. FITC′ = fluorescein isothiocyanate
quantity-name: pIC50
In plain terms, pIC50 is the concentration in mol/L turned into minus its base-10 logarithm.

query: Suppose we examine the binder GGGDDLGANDELISFKDEGEQEEKSSENSSAERDLADVKSSLVNE-{FITC′} [C-terminal FITC-labeled TCF4 peptide (aa 7-51)] ; what pIC50 value has been reported?
result: 7.54
